Measured MEC (minimal effective concentration) values are reported for all entries that follow.
# tested.target: recombinant guanylate cyclase reporter cell line (Rattus norvegicus, UniProt P19686+P20595)
# Construct: expressed in transfected cells; host or cells: recombinant reporter cell line
# protocol.details: Action on recombinant guanylate cyclase reporter cell line
# Assay type: cell-based
# condition.notes: in some cases mean values from individual determinations
parameter.measured: MEC (minimal effective concentration)

CCC(N)(CC)CNC(=O)c1c(C)nc2c(OCc3c(F)cccc3F)cccn12 = 0.10 µM
Cc1cc(OCc2c(F)cccc2F)c2nc(C)c(C(=O)NC[C@H]3CCCCN3)n2c1 = 0.30 µM
Cc1cc(OCc2c(F)cccc2F)c2nc(C)c(C(=O)NCC(C)(N)CO)n2c1 (single isomer, unassigned; enantiomer a) [Example 268] = 0.55 µM

* * *

Measured MEC (minimal effective concentration) values are reported for all entries that follow.
# tested.target: recombinant guanylate cyclase reporter cell line (Rattus norvegicus, UniProt P19686+P20595)
# Construct: expressed in transfected cells; host or cells: recombinant reporter cell line
# Sequence (P19686 1-690): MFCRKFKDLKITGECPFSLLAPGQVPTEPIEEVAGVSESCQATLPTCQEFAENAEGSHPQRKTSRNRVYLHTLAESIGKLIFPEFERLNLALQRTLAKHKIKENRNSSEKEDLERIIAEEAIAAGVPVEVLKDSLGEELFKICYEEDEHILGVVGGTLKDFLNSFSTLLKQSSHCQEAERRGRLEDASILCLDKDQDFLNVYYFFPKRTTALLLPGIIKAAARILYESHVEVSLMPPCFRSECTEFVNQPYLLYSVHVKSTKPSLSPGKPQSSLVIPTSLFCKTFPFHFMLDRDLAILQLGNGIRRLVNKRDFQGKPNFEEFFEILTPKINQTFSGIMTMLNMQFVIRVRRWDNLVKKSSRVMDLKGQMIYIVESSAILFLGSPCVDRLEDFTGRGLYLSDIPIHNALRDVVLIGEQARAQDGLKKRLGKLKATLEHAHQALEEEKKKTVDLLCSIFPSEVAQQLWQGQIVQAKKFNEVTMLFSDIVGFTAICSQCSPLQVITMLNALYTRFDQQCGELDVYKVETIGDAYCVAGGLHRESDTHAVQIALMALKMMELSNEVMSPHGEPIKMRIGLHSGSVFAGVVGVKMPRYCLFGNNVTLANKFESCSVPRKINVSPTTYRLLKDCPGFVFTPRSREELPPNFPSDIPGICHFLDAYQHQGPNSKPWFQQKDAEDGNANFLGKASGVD
# Sequence (P20595 1-619): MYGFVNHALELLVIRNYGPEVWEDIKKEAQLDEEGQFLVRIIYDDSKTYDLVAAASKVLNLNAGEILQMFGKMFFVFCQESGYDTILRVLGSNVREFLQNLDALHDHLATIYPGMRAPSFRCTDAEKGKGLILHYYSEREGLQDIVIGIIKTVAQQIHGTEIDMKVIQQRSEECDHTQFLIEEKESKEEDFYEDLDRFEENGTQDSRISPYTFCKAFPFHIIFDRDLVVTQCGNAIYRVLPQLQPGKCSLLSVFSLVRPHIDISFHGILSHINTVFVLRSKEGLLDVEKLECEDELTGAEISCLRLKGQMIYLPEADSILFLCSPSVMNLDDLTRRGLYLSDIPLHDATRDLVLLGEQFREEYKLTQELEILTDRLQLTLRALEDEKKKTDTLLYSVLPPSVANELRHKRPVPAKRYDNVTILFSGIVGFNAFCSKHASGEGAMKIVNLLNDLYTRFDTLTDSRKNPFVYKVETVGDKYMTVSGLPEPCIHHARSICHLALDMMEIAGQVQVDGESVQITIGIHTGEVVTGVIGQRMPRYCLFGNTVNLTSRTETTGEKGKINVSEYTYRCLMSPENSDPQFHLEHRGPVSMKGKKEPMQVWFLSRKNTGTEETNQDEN
# protocol.details: Action on recombinant guanylate cyclase reporter cell line
# Assay type: cell-based
# condition.notes: in some cases mean values from individual determinations
# Description: B-2. Action on Recombinant Guanylate Cyclase Reporter Cell Line The cellular action of the compounds according to the invention is determined on a recombinant guanylate cyclase reporter cell line, as described in F. Wunder et al., Anal. Biochem. 339, 104-112 (2005). Representative MEC values (MEC=minimal effective concentration) for the compounds according to the invention are shown in the following table (in some cases as mean values obtained from individual determinations): […]
Where a name gives a salt, the structure may show the parent alone.
parameter.measured: MEC (minimal effective concentration) (µM)

Cc1nc2c(OCc3c(F)cccc3F)cc(Cl)cn2c1C(=O)NCCN(CC(F)F)C1CC1 [Example 150] = 0.10
Cc1cc(OCc2c(F)cccc2F)c2nc(C)c(C(=O)NC3CCC3N)n2c1 (single isomer, unassigned; enantiomer a) [Example 328] = 3.00
COCC(C)(N)CNC(=O)c1c(C)nc2c(OCc3c(F)cccc3F)cc(Cl)cn12 (single isomer, unassigned) [Example 196] = 1.00
Cc1nc2c(OCc3c(F)cccc3F)cccn2c1C(=O)NC(C)(C)C(C)(C)N [Example 141] = 3.00
CCCC(C)(N)CNC(=O)c1c(C)nc2c(OCc3c(F)cccc3F)cc(C)cn12 (racemic) [Example 232] = 0.10
Cc1cc(OCc2c(F)cccc2F)c2nc(C)c(C(=O)NCC(C)(N)CC(C)C)n2c1 (racemic) [Example 218] = 0.10
CCC(C)(N)CNC(=O)c1c(C)nc2c(OCc3c(F)cccc3F)cc(CF)cn12 (centres unmarked) [Example 404] = 0.30
Cc1cc(OCc2c(F)cccc2F)c2nc(C)c(C(=O)NCC(N)c3ccc(C)o3)n2c1 (racemic) [Example 369] = 0.30
Cc1nc2c(OCc3c(F)cccc3F)cc(Cl)cn2c1C(=O)NCC(C)N (single isomer, unassigned) [Example 30] = 0.30
CCCC(C)(N)CNC(=O)c1c(C)nc2c(OCc3c(F)ccc(OC)c3F)cc(C)cn12 (centres unmarked) [Example 364] = 0.30
Cc1nc2c(OCc3c(F)cccc3F)cc(Cl)cn2c1C(=O)NCC(N)CC(F)(F)F (single isomer, unassigned) [Example 192] = 0.30
Cc1cc(OCc2c(F)cccc2F)c2nc(C)c(C(=O)NC(CN)c3ccc(F)c(F)c3)n2c1 (centres unmarked) [Example 51] = 0.20
Cc1nc2c(OCc3c(F)cccc3F)cccn2c1C(=O)NC(CN)COC(C)C (racemic) [Example 63] = 0.30
Cc1nc2c(OCc3c(F)cccc3F)cccn2c1C(=O)NCCN1CCS(=O)(=O)CC1 [Example 131] = 3.00
Cc1cc(OCc2c(F)cccc2F)c2nc(C)c(C(=O)NCC3CNCCO3)n2c1 (racemic) [Example 345] = 1.00
CCC(C)(N)CNC(=O)c1c(C)nc2c(OCc3c(F)ccc(F)c3F)cc(C)cn12 (single isomer, unassigned; enantiomer a) [Example 300, hydrochloride] = 0.10
COCC(N)CNC(=O)c1c(C)nc2c(OCc3c(F)cccc3F)cccn12 (single isomer, unassigned; enantiomer b) [Example 248] = 1.00
Cc1cc(OCc2c(F)cccc2F)c2nc(C)c(C(=O)NCC(C)(N)COc3ccc(F)c(F)c3)n2c1 (racemic) [Example 350] = 1.00
Cc1nc2c(OCc3c(F)cccc3F)cccn2c1C(=O)NC1CC(C)(C)NC(C)(C)C1 [Example 82] = 0.20
Cc1nc2c(OCc3c(F)cccc3F)cc(Cl)cn2c1C(=O)NC(C)C1CCN(C)CC1 (racemic) [Example 78] = 1.00
